# System: MS2 coat protein
# Method: apparent KD of MS2 coat protein, switch OFF state (with FMN for OFF switches, without FMN for ON switches); designed switch direction (-1 OFF switch, 1 ON switch): 1; higher = weaker reporter binding
# Measurement Context: FMN input: 0 or 200 uM; Eterna round: R93 (includes R88 designs)
Catalogue of apparent KD of MS2 coat protein values
Param answer (str): number followed by unit.

The following sequences have reported results that may help.
sequence="CGGCUAAACGGGCAGGAUAUGUUCACUAGAACAUGAGGAUCACCCAUGUGAAACUGGCGAUAAUCGCAGAAGGGCCCGUGCACGA [Atensoin]" result="61.3 nM"
sequence="GAAAAACAUGAGGAUCACCCAUGUGAUAAUAUGGGAGGAUAUACGAAGACGAAAGUCAAAGUAGAAGGCCUAAAAG [Garnet 36]" result="81.7 nM"
sequence="AAAUAAAUGACUGAGGAUAUAUCGAUGAGUACAUGAGGAUCACCCAUGUGAUAAUAAAAAGGGUGGUAGAAGGUAGUCAACAAAC [Mod 14 of Pariah 4 by Hyphema in Round 1]" result="150 nM"
sequence="AUAAUAAUAAGGUAGGAUAUACUAAAGUAAACAUGAGGAUCACCCAUGUAAAGAAAAAAACUCAUGUAGAAGGGCCAGAAAUAAA [moonwalk 3]" result="62.3 nM"

query: So what does the record say about apparent KD of MS2 coat protein for AAUAUACAUGAGGAUCACCCAUGUUAGGUGGGACUAGGAUAUCAAAAGAAAGAGUAAGAAUGAGAAGGAGUAGAAA [JR_SS001_Sub016] ?
result: 240 nM

query: So what does the record say about apparent KD of MS2 coat protein for UGGAGACAUGAGGAUCACCCAUGUGAGAAGAGGCGAGGAUAUCGAAAGAAAGAAGAGAAACGAGAAGGCGCGAGAU [salish99-SS1-034] ?
result: 27.6 nM

* * *

# Test system: MS2 coat protein
# Method: apparent KD of MS2 coat protein; higher = weaker reporter binding
# Measurement Context: Eterna round: R107; input ligand: arginine 13.2 mM
Value Kind: apparent KD of MS2 coat protein (nM)
State just the number; it will be interpreted in nM.

The following sequences have reported results that may help.
sequence="AGUUUGGACUCGGCCGCCACUCGUGAUGCUUUGGCACAUGAGGAUCACCCAUGUGGUCGGCCUUAGAGGACCGGGAGUACCAGCC [Edesceso]" assayed_system="MS2 coat protein" quantitative_readout=82.5
sequence="GCACGGUAGUCGGCCGCCACUGAAACAUGUGUCUACAUGAGGAUCACCCAUGUGGGUGUGUUUUGUAGGACCGGGACAAGACCCG [#11 Same State - Tryptophan B]" assayed_system="MS2 coat protein" quantitative_readout=16.8
sequence="GGUACAUGAGGAUCACCCAUGUAUUAGUGCCGAGGACCGGUACGGCCGCCACUCGCUUCACAUGAGGAUCACCCAUGUGUCACAG [SSTA DOUBLE!!! :-D #13]" assayed_system="MS2 coat protein" quantitative_readout=22.4

query: So what does the record say about apparent KD of MS2 coat protein for GGGCAAGAGGGAAGGAGCGUCGGCUGAGUAACAUGAGGAUCACCCAUGUAGCACAUAGUGUGGCAGGUAGGUCGCCCUCUGCCCU [SS-ArgB7] ?
result: 17.5

query: So what does the record say about apparent KD of MS2 coat protein for GUAGGUCAGUGAUCCCGACCUACACUGGAAGGAGCGAGCGAAAGCUCAGGUAGGUCGCCAGAAACAUGAGGAUCACCCAUGUAAU [(A)''-(M)'-(A)'-(Arg1)-(Arg2)-(M1)-(M2)_Design1] ?
result: 76.1

query: So what does the record say about apparent KD of MS2 coat protein for CACGGAUGAGUGGAUCACCCUCAUAAUAACCGAGGACCGGUACGGCCGCCACUCGAAAACCGUGACCUGUACGAAAAGUGCAGGA ?
result: 28

* * *

Catalogue of apparent KD of MS2 coat protein values
# System: MS2 coat protein
# Method: apparent KD of MS2 coat protein; designed switch direction (-1 OFF switch, 1 ON switch): -1; higher = weaker reporter binding
# Measurement Context: input ligand: FMN 200 uM
Param answer (str): number followed by unit.

The following sequences have reported results that may help.
sequence="AAUUAGCAAGCGAGAUCCCACAUGAGGAUCACCCAUGUGCUCGUCUUAUAAAAGACUGUGACGAUAGUCACGGUCAC [Mat - Sensor, turn-off var - Eli Mod - D25] (Eterna round: R97, puzzle: Sensor, turn-off variant 1)" value_kind="apparent KD of MS2 coat protein" result="0.0153 µM"
sequence="CAGAACAGAGGAUAUACAUGAGGAUCACCCAUGUGUUCCAGCUAGGAGACUAGCAUAUGUAGAAGGCUGUUCUG [Mat - Exclusion 3 - JL Mod - D12] (Eterna round: R97, puzzle: Exclusion 3)" value_kind="apparent KD of MS2 coat protein" result="0.0877 µM"
sequence="AAAACAAAAGGAUAUACAUGAGGAUCACCCAUGUGGCAUAAAAUCGCCGCUAAACCAUGUAGAAGGUUUGCGAA [EX3 A.6] (Eterna round: R97, puzzle: Exclusion 3)" value_kind="apparent KD of MS2 coat protein" result="0.0255 µM"

Turning to the following sequence.
query: Return apparent KD of MS2 coat protein measured with MS2 coat protein given this sequence: UACAUGAGGAUCACCCAUGUUUUGUCGUGUAUGGUAUUUAUCUAGGAUAUCAUAUUAUUUAGUUAUGAGAAGGAGAAUAUUAAU [JMF's solution 80] (Eterna round: R96, puzzle: Exclusion NG 3)
result: 0.0249 µM

* * *

# Test system: MS2 coat protein
# Method: apparent KD of MS2 coat protein; designed switch direction (-1 OFF switch, 1 ON switch): 1; higher = weaker reporter binding
# Measurement Context: Eterna round: R95; input ligand: microRNA oligo, concentration not stated
Value Kind: apparent KD of MS2 coat protein (µM)
State just the number; it will be interpreted in µM.

query: So what does the record say about apparent KD of MS2 coat protein for AUAAGUUUGAUGCUCGUCUCUCCGUACGGACAUGAGGAUCACCCAUGUAGUCGGGAAGUAGCCCGGCCAGUAUGGCC [Soveerre] (puzzle: Sensor for hsa-mir-208a) ?
result: 0.0223

query: So what does the record say about apparent KD of MS2 coat protein for UGGCCAGCCUGUGCUGGGCUUUAGCAUGUACAUGAGGAUCACCCAUGUCGUGUACAUGCUUUUUGCUCGUCUUUAAA [Photon Torp-06] (puzzle: Sensor for hsa-mir-208a) ?
result: 0.0231

query: So what does the record say about apparent KD of MS2 coat protein for GAGUAGGACUUACAGGAUAUAUGGAGGUUGACAUGAGGAUCACCCAUGUCUGAGUUGAGAGGAGGAUAGAAGGGUAUGGGAGGCG [JR_SS2_Sub030] (puzzle: Same State 2) ?
result: 0.0165

query: So what does the record say about apparent KD of MS2 coat protein for AUCAAAACAAGUUGCAGUGUUCGUCUUUCACAUGAGGAUCACCCAUGUAAUAGCCCAGUGGAAGCGCUCGGGCUACC [Esgevexe] (puzzle: Sensor for hsa-mir-208a) ?
result: 0.0256

query: So what does the record say about apparent KD of MS2 coat protein for AACAAUCUAUCUGAGGAUAUCAUGAAAUAAACAUGAGGAUCACCCAUGUGCAGUAAAACUGCAUAUGAGAAGGCAGAUAGAUUGA [salish99_ss2_r3_039] (puzzle: Same State 2) ?
result: 1.85

* * *

Catalogue of apparent KD of MS2 coat protein values
# System: MS2 coat protein
# Method: apparent KD of MS2 coat protein; designed switch direction (-1 OFF switch, 1 ON switch): -1; higher = weaker reporter binding
# Measurement Context: input ligand: none
State just the number; it will be interpreted in µM.

The following sequences have reported results that may help.
sequence="AAUUCUAGGGUCAGACGCACAAGCUUUUUGCUCGUUUUAACAUGAGGAUCACCCAUGUCUAGUGGAUCUGAUCGGGC [JL ViennaUCT Isreen mod 8] (Eterna round: R96, puzzle: Sensor v3, turn-off variant 2)" quantitative_readout=0.0333
sequence="AAUAUACAUGUAGGAUAUCUGCACGUGUAGUGCAGAGAAGGACAUGAGGAUCACCCAUGUAAUUAAGAUCAAUUAUUAAAUAUU [ENG1/3-B3] (Eterna round: R96, puzzle: Exclusion NG 1)" quantitative_readout=0.0623
sequence="GAGGUCGCAGGAUAUAGUACAUAGAACAUGAGGAUCACCCAUGUAGCGGGAGGUUCUAUAUUAGAAGGGUGAAGUC [Eternabot (L2) Solution 97] (Eterna round: R97, puzzle: Exclusion 5)" quantitative_readout=0.494

query: So what does the record say about apparent KD of MS2 coat protein for CGCAAGUUAGGAUAUGACGCGAAUUUCCGGCUUUGGCCGGAUCAGAAGGAACUUGAGGAUCACCCAAGUGGCCG [Adia] (Eterna round: R97, puzzle: Exclusion 4) ?
result: 0.0159

query: So what does the record say about apparent KD of MS2 coat protein for AGCUGUGGCCGAGGAUAUCUAAACCUCAAAACCGAGGUAUACUCGGACAUGAGGAUCACCCAUGUAGAGAAGGCGGUCUCAGCA [Eli eng2 - 036] (Eterna round: R96, puzzle: Exclusion NG 2) ?
result: 0.443
